assay: Log P (Table 1, no method described)
test readout: logP

molecular_string=C[C@](O)(Cn1cnc(C(F)(F)F)cc1=O)C(=O)Nc1ccc(C#N)c(C(F)(F)F)c1 assay_value=3.53
molecular_string=CN1C=CCC(C(=O)O[C@@](C)(COc2ccc(C#N)cc2)C(=O)Nc2ccc(C#N)c(C(F)(F)F)c2)=C1 assay_value=4.45
molecular_string=C[C@@](COc1ccc(C#N)nc1)(OC(=O)c1cccnc1)C(=O)Nc1ccc(C#N)c(C(F)(F)F)c1 assay_value=3.32
molecular_string=CN1CCC(C(=O)O[C@@](C)(COc2ccc(C#N)cc2)C(=O)Nc2cnc(C#N)c(C(F)(F)F)c2)CC1 assay_value=3.2
molecular_string=C[C@@](COc1ccc(C#N)cc1)(OC(=O)c1ccccc1)C(=O)Nc1cnc(C#N)c(C(F)(F)F)c1 assay_value=4.65
molecular_string=C[C@@](COc1ccc(C#N)cc1)(OC(=O)c1cccnc1)C(=O)Nc1cnc(C#N)c(C(F)(F)F)c1 assay_value=3.32
molecular_string=CN(C)CCC(=O)O[C@@](C)(COc1ccc(C#N)cc1)C(=O)Nc1cnc(C#N)c(C(F)(F)F)c1 assay_value=2.86
